This collection of values is drawn from the supplement of paper PMC11061612.

- Test system: TCCSUP (Bladder Carcinoma)
- assay-method-text: Bliss excess, mean over the matrix (fraction); higher = more synergy;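 also: after 72 h of two-drug dosing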
measurement-type: Bliss excess
API doc: respond with a numeric literal and nothing else, no unit.

• NC1(C(=O)N[C@@H](CCO)c2ccc(Cl)cc2)CCN(c2ncnc3[nH]ccc23)CC1 [Capivasertib] + CC(=O)c1c(C)c2cnc(Nc3ccc(N4CCNCC4)cn3)nc2n(C2CCCC2)c1=O [Palbociclib] (first compound max 10 µM, 7x7, partner max 10 µM) = 0.0372
• C[C@@H](c1ccc2nccn2c1)n1nnc2ncc(-c3cnn(C)c3)nc21 [Savolitinib] + Cc1c2c(nn1C)CSCc1cc(n(C)n1)CSc1cc(c3ccccc3c1)OCCCc1c(C(=O)O)n(C)c3c-2c(Cl)ccc13 [AZD5991] (first compound max 1 µM, 7x7, partner max 1 µM) = -0.0262
• CN(CCO)CC[C@H](CSc1ccccc1)Nc1ccc(S(=O)(=O)NC(=O)c2ccc(N3CCC([C@@H](O)c4ccccc4-c4ccc(Cl)cc4)CC3)cc2)cc1S(=O)(=O)C(F)(F)F [AZD4320] + C[C@@H]1COCCN1C2=NC(=NC(=C2)C3(CC3)[S@](=N)(=O)C)C4=C5C=CNC5=NC=C4 [AZD6738] (first compound max 1 µM, 7x7, partner max 10 µM) = 0.009

State, for TCCSUP (Bladder Carcinoma), measured Bliss excess of the molecule listed here: C=CCn1c(=O)c2cnc(Nc3ccc(N4CCN(C)CC4)cc3)nc2n1-c1cccc(C(C)(C)O)n1 [AZD1775] + C[C@@H]1COCCN1C2=NC(=NC(=C2)C3(CC3)[S@](=N)(=O)C)C4=C5C=CNC5=NC=C4 [AZD6738] (first compound max 1 µM, partner max 10 µM)
0.0305

====

Catalogue of Bliss excess values
- System: ES4 (Ewing's Sarcoma)
- assay-method-text: Bliss excess, mean over the matrix (fraction); higher = more synergy

* CC(=O)c1c(C)c2cnc(Nc3ccc(N4CCNCC4)cn3)nc2n(C2CCCC2)c1=O [Palbociclib] + Cc1c2c(nn1C)CSCc1cc(n(C)n1)CSc1cc(c3ccccc3c1)OCCCc1c(C(=O)O)n(C)c3c-2c(Cl)ccc13 [AZD5991] (first compound max 10 µM, 7x7, partner max 1 µM) | -0.046
* CC1(C)CCC(CN2CCN(c3ccc(C(=O)NS(=O)(=O)c4ccc(NCC5CCOCC5)c([N+](=O)[O-])c4)c(Oc4cnc5[nH]ccc5c4)c3)CC2)=C(c2ccc(Cl)cc2)C1 [Venetoclax] + C[C@@H](Nc1cc(F)cc(F)c1)c1cc(C(=O)N(C)C)cc2c(=O)cc(N3CCOCC3)oc12 [AZD8186] (first compound max 1 µM, 7x7, partner max 3 µM) | -0.0554

# input for lookup
State, for ES4 (Ewing's Sarcoma), measured Bliss excess of the compound listed here: Cc1cc2ncnn2cc1Nc1ncc2c(n1)n(C1CCOCC1)c(=O)n2C [AZD7648] + C[C@@H]1COCCN1C2=NC(=NC(=C2)C3(CC3)[S@](=N)(=O)C)C4=C5C=CNC5=NC=C4 [AZD6738] (first compound max 10 µM, 7x7, partner max 10 µM)
0.0062

====

Catalogue of Bliss excess values
- System: MDA-MB-361 (Breast Carcinoma)
- assay-method-text: Bliss excess, mean over the matrix (fraction); higher = more synergy

* COc1cccc(OCCCN)c1-c1cc(Nc2cnc(C#N)cn2)n[nH]1 [Prexasertib] + O=C(c1cc(Cc2n[nH]c(=O)c3ccccc23)ccc1F)N1CCN(C(=O)C2CC2)CC1 [Olaparib] (first compound max 1 µM, 7x7, partner max 10 µM) | -0.0509
* CCN(CCO)CCCOc1ccc2c(Nc3cc(CC(=O)Nc4cccc(F)c4)[nH]n3)ncnc2c1 [AZD2811] + C[C@@H]1COCCN1C2=NC(=NC(=C2)C3(CC3)[S@](=N)(=O)C)C4=C5C=CNC5=NC=C4 [AZD6738] (first compound max 1 µM, 7x7, partner max 10 µM) | -0.0816
* Cc1cc2ncnn2cc1Nc1ncc2c(n1)n(C1CCOCC1)c(=O)n2C [AZD7648] + C=CCn1c(=O)c2cnc(Nc3ccc(N4CCN(C)CC4)cc3)nc2n1-c1cccc(C(C)(C)O)n1 [AZD1775] (first compound max 10 µM, partner max 1 µM) | -0.0854

# input for lookup
Determine from records and report Bliss excess for Cc1c2c(nn1C)CSCc1cc(n(C)n1)CSc1cc(c3ccccc3c1)OCCCc1c(C(=O)O)n(C)c3c-2c(Cl)ccc13 [AZD5991] + CN(C)CCCOc1ccc(-c2ccc3ncc4c(c3c2)n(C2CCOCC2)c(=O)n4C)cn1 [AZD0156] (first compound max 1 µM, 7x7, partner max 1 µM)
-0.016
